SYSTEM NAME: human NHE3 (Homo sapiens)
Construct: expressed in transfected cells; host or cells: PS120 (Na+/H+ exchanger deficient derivative of Chinese hamster lung fibroblast line CCL39), plasmid pEH3 (pECE vector)
Sequence (P48764 26-834): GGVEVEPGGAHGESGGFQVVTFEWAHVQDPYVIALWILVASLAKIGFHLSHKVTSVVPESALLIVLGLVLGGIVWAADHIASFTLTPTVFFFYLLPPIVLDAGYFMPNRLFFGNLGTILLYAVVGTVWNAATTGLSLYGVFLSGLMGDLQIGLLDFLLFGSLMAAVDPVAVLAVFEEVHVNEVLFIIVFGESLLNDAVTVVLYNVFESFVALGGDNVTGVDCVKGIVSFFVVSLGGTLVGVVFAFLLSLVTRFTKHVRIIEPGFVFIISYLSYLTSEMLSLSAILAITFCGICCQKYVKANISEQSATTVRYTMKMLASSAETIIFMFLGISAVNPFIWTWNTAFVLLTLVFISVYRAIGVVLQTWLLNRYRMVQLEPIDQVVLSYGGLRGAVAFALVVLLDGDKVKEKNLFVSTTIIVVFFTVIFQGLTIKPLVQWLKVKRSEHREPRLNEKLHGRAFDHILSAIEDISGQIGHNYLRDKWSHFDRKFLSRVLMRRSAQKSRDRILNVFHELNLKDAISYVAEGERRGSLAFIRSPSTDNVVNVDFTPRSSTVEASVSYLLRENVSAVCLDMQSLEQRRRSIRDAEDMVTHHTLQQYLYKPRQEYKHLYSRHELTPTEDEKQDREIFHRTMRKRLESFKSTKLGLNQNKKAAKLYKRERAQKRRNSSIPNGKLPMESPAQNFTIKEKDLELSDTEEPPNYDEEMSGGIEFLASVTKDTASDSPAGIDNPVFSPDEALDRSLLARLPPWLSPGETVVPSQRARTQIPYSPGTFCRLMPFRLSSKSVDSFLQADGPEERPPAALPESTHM
EXPERIMENTAL PROTOCOL: 22Na+ uptake in acid loaded HNHE3/PS120 cells
Type: cell-based
EXPERIMENTAL SETUP: 22Na+ 1 mM, mean of three independent experiments, read-out: Inhibition constants (IC50) of 22Na+ uptake, mean
pIC50: −log10 of the molar value.
Listed here: items and their measured pIC50.
ATTRIBUTE MEASURED: pIC50

- COMPOUND: "CCN(c1nc(N)c(C(=O)NC(=N)N)nc1Cl)C(C)C [Ethylisopropylamiloride, ethylisopropylamiloride]"
  ATTRIBUTE MEASURED: "pIC50"
  RECORDED VALUE: 5.18
- COMPOUND: "N=C(N)NC(=O)c1nc(Cl)c(N)nc1N [Amiloride, amiloride]"
  ATTRIBUTE MEASURED: "pIC50"
  RECORDED VALUE: 4.31
